Where do these numbers come from? They come from the OligoGym collection.

The reader will find reported calcium oscillation score values listed item by item below.
Molecular target: Tau
Test: rat primary cortical neurons, FLIPR, 25 uM ASO
Bases are written 5' to 3'; sugars and linkages follow in the same order, as letters with counts (s phosphorothioate, o phosphodiester; PS: all linkages phosphorothioate). The collection does not say whether C is 5-methylated. l = locked nucleic acid (LNA); d = 2'-deoxy (DNA)
result type: calcium oscillation score

[
  {
    "polymer sequence": "ACAGATATTCATTCCCT (sugars l4 d11 l2, PS)",
    "val": "44.2 % of control"
  },
  {
    "polymer sequence": "CAGGCGCGAGCAGCGG (sugars l3 d10 l3, PS)",
    "val": "49.5 % of control"
  },
  {
    "polymer sequence": "CTCAAAATCCTTAATTTAAC (sugars l4 d12 l4, PS)",
    "val": "64.4 % of control"
  },
  {
    "polymer sequence": "CCCACATTATATCAGTA (sugars l2 d12 l3, PS)",
    "val": "80.7 % of control"
  },
  {
    "polymer sequence": "TGATTGTGGGCTTA (sugars l3 d8 l3, PS)",
    "val": "28.7 % of control"
  }
]
